assay: small-molecule binders of probe aNOTCH2, primary screen, biochemical, small-molecule microarray, 635/667 nm fluorescence (AID 1121); conditions: higher = more signal;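 note: score merges feature fluorescence read at 667 nm with its signal to noise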
attribute.measured: composite z-score
Enter the number alone.

molecule.smiles	composite z-score
CN(C)CCCCCCNC(=O)[C@H]1C[C@H]2C(=O)N3CCC[C@H]3C(=O)N2[C@H]1c1ccc(O)cc1	-0.0438
COC(=O)[C@@]1(CCS(=O)(=O)c2ccccc2)N=C(c2ccc(OCCCO)cc2)O[C@H]1c1ccccc1CN=[N+]=[N-]	0.0657
CCCC#C[Si](O[C@H](CC)c1cn(Cc2cccc(Cl)c2)nn1)(C(C)C)C(C)C	-0.179

// COC(=O)[C@@]1(Cc2ccc(OC)cc2)[C@H]2c3cc(C(=O)N4CCCC4)n(CCN4CNCC4=O)c3C[C@H]2CN1C(=O)c1ccccc1 : composite z-score value = 0.967

---

assay: HepG2 liver cancer cell viability effects, profiling panel, resazurin fluorescence, 24 h, PK04 Diversity Set (AID 1172); conditions: higher = more signal; note: test concentration not given here
attribute.measured: z-score
The answer should be a number; do not append a unit.

Examples with answers:
compound	assay.value
COCCCNC(=O)[C@@]1(C)c2ccccc2C(=O)N(C(C)C)[C@H]1c1ccc(CO)cc1	-0.104
COCCCNC(=O)[C@@H]1c2ccccc2C(=O)N(Cc2ccccc2Cl)[C@H]1c1ccc(CO)cc1	-0.378
O=C1N[C@@H](Cc2ccccc2)C(=O)N2[C@@H]1C[C@@H](C(=O)O)[C@H]2c1cccc(OCCO)c1	-1.6
CC(C)C(CO)N1C(=O)[C@@H]2C3C(=O)OCCC/C=C\[C@H]3OC23C=CCN(CCN2CCOCC2)C(=O)[C@@H]13 (some centres not stated)	-0.723
COC(=O)C(CC#Cc1ccc2c(c1)[C@]1(C(=O)N2)[C@H](C(=O)Nc2nc3ccccc3s2)[C@H]2C(=O)O[C@H](c3ccccc3)[C@H](c3ccccc3)N2[C@@H]1c1ccc(O)cc1)C(=O)OC	0.793

Lab book: z-score of CCCCCCc1nc(-c2cc(C)c(OC)c(C)c2)cc2c1[Si](C(C)C)(C(C)C)OC2 noted as -0.206

The compound identified as COc1ccccc1CN1C(=O)c2ccccc2[C@@H](C(=O)NC2CC2)[C@@H]1c1ccc(CO)cc1 registered its z-score at 0.103

---

target: Fibroblast growth factor 10 (Homo sapiens) (UniProt O15520); assay: FGF10 binders on small-molecule microarrays, primary screen, biochemical, small-molecule microarray, 635 nm fluorescence (AID 1102); conditions: FGF10 binding, fluorescence 635 nm, higher = more signal
Sequence (O15520 whole entry, looked up): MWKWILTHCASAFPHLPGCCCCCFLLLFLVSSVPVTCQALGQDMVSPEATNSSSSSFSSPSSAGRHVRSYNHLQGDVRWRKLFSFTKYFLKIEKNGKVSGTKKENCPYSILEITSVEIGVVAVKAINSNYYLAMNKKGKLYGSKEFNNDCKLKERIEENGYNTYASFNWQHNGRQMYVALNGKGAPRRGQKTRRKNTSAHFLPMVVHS
Known composite z-score of a selection of compounds
Answer with a number only.

In plain terms, C[N+](C)(C)CCCCCCNC(=O)[C@@H]1C[C@@H]2C(=O)N[C@@H](Cc3ccccc3)C(=O)N2[C@@H]1c1cccc(OCCO)c1 has a documented composite z-score of 0.72

The measured composite z-score associated with C[C@@]1([C@@H](NC(=O)c2ccc(-c3ccccc3)cc2)c2ccc(Cl)cc2)C[C@H]1C1CCCCC1 reads 0.575

Consider C=C(/C(=C/C[C@H](OC(C)=O)c1ccccc1OCCO)c1cnc2ccccc2c1)C(C)C . Its measured composite z-score is 0.53

---

assay: basal 3T3-L1 adipocyte mitochondrial potential changes, profiling panel, cell-based, JC-1 fluorescence, 3T3-L1 adipocytes, 24 h, 100 nL compound (AID 1168); conditions: JC-1 mitochondrial fluorescence, higher = more signal, called active from +8 up or from −8 down; note: test concentration not given here
Where z-score equals or exceeds 0.2, the correct label is met; where it does not, the label is not met.

compound	qualitative.label
O=C(CS)NCCCCCCNC(=O)[C@@H]1C[C@@H]2C(=O)NCC(=O)N2[C@@H]1c1cccc(OCCO)c1	met

Problem: z-score >= 0.2 for CCOC(=O)C[C@H]1[C@H](OC(=O)c2ccc(C(=O)c3ccccc3)cc2)[C@@H](NC(=O)CC(C)C)c2cc(OCCCO)ccc2N1C(=O)c1ccc2ccccc2n1 ?
Result: met

Problem: Could you tell me if the measured z-score of CN1C(=O)C2C=CC(C(O)c3ccccc3)N(N(c3ccccc3)c3ccccc3)C2C1=O (stereo not drawn) reaches 0.2 or more?
Result: not met

Problem: Please check the record COC(=O)[C@@]1(CCS(=O)(=O)c2ccccc2)N=C(c2ccc(OCCCO)cc2)O[C@H]1c1ccccc1CN=[N+]=[N-] and state if its z-score is at or above 0.2.
Result: met

Problem: # bool: z-score of C=C(C(=O)CC[C@@H](OC(=O)c1cccnc1)c1ccccc1OCCO)C(C)C >= 0.2
Result: met

Problem: Identify whether the reported z-score of the following compound is 0.2 or greater: C=C(CCCC)C(=O)CC[C@@H](OC(=O)c1ccccc1-c1ccccc1C(=O)O)c1ccc(OCCO)cc1
Result: not met

Problem: Could you verify whether the entry COc1ccc(C(O)C2C=CC3C(=O)N(Cc4ccccc4)C(=O)C3N2n2cnnc2)cc1OCc1ccccc1 (stereo not drawn) shows z-score of no less than 0.2?
Result: not met

Problem: Is the recorded value of z-score equal to or greater than 0.2 for this compound? COc1cc(COC(C)=O)ccc1OC(C)=O
Result: met
